test system: A498; assay: NCI tumour cell line growth inhibition, 48 h
Calls of active or inactive are those of the source. Rule as the data show it: active = GI50 up to about 1.1 µM and inactive = higher.
Could you please pick one outcome from this set? true (1) for active, false (0) for inactive

Call for entry COc1ccc2nc(NC(=O)C(=O)C(C(=O)c3ccccc3-c3ccccc3)C3OC(=O)c4ccccc43)sc2c1 (stereo not drawn) :
false (0)

Further, for CC(=O)OCc1cc(OC(C)=O)c2cc3c(OC(C)=O)cccc3c(OC(C)=O)c2c1 ?
false (0)

Further, for COC(=O)Nc1nc2cc(Br)ccc2[nH]1 ?
false (0)

Further, for CCOC(=O)N/N=C/C1=NN(C(=O)OCC)[S+]([O-])C1C (stereo not drawn) ?
false (0)

Further, for C=CS(=O)(=O)c1c2cc(OC)ccc2nc2ccc(OC)cc12 ?
false (0)

Further, for CCOC(=O)c1ccc(N(C)Cc2cnc3nc(N)nc(N)c3n2)cc1 ?
false (0)

Further, for C=C1CC2CC(O)CC(C1)C2 (stereo not drawn) ?
false (0)

Further, for CCOC(=O)C1=C(C)C2C=C(c3cccs3)CC(c3ccc(Cl)cc3)=C2OC1=O (stereo not drawn) ?
false (0)

Further, for CCOC(=O)Cc1cc(=O)[nH]c(-n2[nH]c(C)c(CCO)c2=O)n1 ?
false (0)

Further, for Cc1ccc(C(=O)/C=C(O)/C(O)=C/C(=O)c2ccc(C)cc2C)c(C)c1 ?
false (0)

Further, for Cc1c2cc[n+](Cc3ccc(I)cc3)cc2c(C)c2c1[nH]c1ccccc12 ?
true (1)

Further, for CCOC(=O)CCC(NC(=O)C(CCC(=O)OCC)NC(=O)C(Cc1ccc([N+](=O)[O-])cc1)NC(C)=O)C(=O)NNC(=O)OC(C)(C)C (stereo not drawn) ?
false (0)

Further, for CN1CCCCC1CCN1c2ccccc2Sc2ccc([S+](C)[O-])cc21 (stereo not drawn) ?
false (0)

Further, for COc1ccc(-n2cnc3c(NC(C)(C)C(=O)O)ncnc32)cc1 ?
false (0)

Further, for C=C1C(=O)OC2/C=C(\CO)C3OC3C3OC3(C)CC(OC(=O)/C(=C/C)COC(C)=O)C12 (stereo not drawn) ?
false (0)

Further, for CCCCCCCCCC/C=C/CC(=O)SCCNC(=O)CCNC(=O)[C@@H](O)C(C)(C)COP(=O)(O)OP(=O)(O)OCC1OC(n2cnc3c(N)ncnc32)C(O)C1OP(=O)(O)O (stereo partly drawn) ?
false (0)

Further, for Cn1ccnc1S/C(=C\C=C(C#N)C#N)c1ccc(Cl)cc1 ?
false (0)

Further, for O=c1cc(N2CCOCC2)oc2c(-c3ccccc3)cccc12 ?
false (0)
